Please provide measured Alanine aminotransferase for the entries that follow.
# Tested on: BALB/c female mice
# measurement notes: Acute toxicity analysis of lipid molecules (cationic lipid LNP) in BALB/c female mice
# condition info: high dose group, 150 μg LNP/pc; blood 24 h after injection; Ave(SD)
Note: unit U/L is implicit; provide only the numeric part.

Request: Given the entry CCCCCCCCCCCOC(=O)CCCCCN(CCCCCCCC(=O)OC(CCCCCCCC)CCCCCCCC)C(C)CCO (stereo not drawn) [Example 9] , report its measured Alanine aminotransferase.
Result: 37.25

Request: Consider the molecule shown here: CCCCCCCCCCCOC(=O)CCCCCN(CCO)CCCCCCCC(=O)OC(CCCCCCCC)CCCCCCCC [SM102, reference compound] What is its recorded Alanine aminotransferase?
Result: 56.18

Request: Please give the measured Alanine aminotransferase for this molecule: CCCCCCCCCCCOC(=O)CCCCCN(CCCCCCCC(=O)OC(CCCCCCCC)CCCCCCCC)CC1(O)CC1 [Example 13]
Result: 39.99

Request: Fill blank: measured Alanine aminotransferase of the molecule CCCCCCCCCCCOC(=O)CCCCCN(CCCCCCCCCCCCO)CCCCCCCC(=O)OC(CCCCCCCC)CCCCCCCC [Example 7] is ____.
Result: 39.92

Request: Requested read-out: Alanine aminotransferase. Entry: CCCCCCCCCCCOC(=O)CCCCCN(CCCCCO)CCCCCCCC(=O)OC(CCCCCCCC)CCCCCCCC [Example 1]
Result: 38.16

Request: Dear colleague, I am looking for the recorded Alanine aminotransferase of the following molecule: CCCCCCCCCCCOC(=O)CCCCCN(CCCCCCO)CCCCCCCC(=O)OC(CCCCCCCC)CCCCCCCC [Example 2]
Result: 41.54

----------
Please go through the items and note down their Creatinine.
# Tested on: BALB/c female mice
# measurement notes: Acute toxicity analysis of lipid molecules (cationic lipid LNP) in BALB/c female mice
# condition info: high dose group, 150 μg LNP/pc; blood 24 h after injection; Ave(SD)
Expressed in µmol/L, but write only the number.

Request: What value of Creatinine has been recorded for this entry: `CCCCCCCCCCCOC(=O)CCCCCN(CCCCCCO)CCCCCCCC(=O)OC(CCCCCCCC)CCCCCCCC`
Result: 12.6

Request: Which Creatinine value is on record for `CCCCCCCCCCCOC(=O)CCCCCN(CCCCCCCCCCCCO)CCCCCCCC(=O)OC(CCCCCCCC)CCCCCCCC` ?
Result: 12.2

Request: Suppose we examine the compound `CCCCCCCCCCCOC(=O)CCCCCN(CCCCCO)CCCCCCCC(=O)OC(CCCCCCCC)CCCCCCCC` ; what Creatinine value has been reported?
Result: 12.4

Request: Would you kindly share the measured Creatinine for CCCCCCCCCCCOC(=O)CCCCCN(CCCCCCCC(=O)OC(CCCCCCCC)CCCCCCCC)C(C)CCO (stereo not drawn) ?
Result: 12.1

Request: May I ask what Creatinine has been recorded for `CCCCCCCCCCCOC(=O)CCCCCN(CCCCCCCC(=O)OC(CCCCCCCC)CCCCCCCC)CC1(O)CC1` ?
Result: 12.4

Request: # query: Creatinine of entry CCCCCCCCCCCOC(=O)CCCCCN(CCO)CCCCCCCC(=O)OC(CCCCCCCC)CCCCCCCC [SM102, reference compound]
Result: 12.6

----------
# Test system: BALB/c female mice
# measurement notes: Acute toxicity analysis of lipid molecules (cationic lipid LNP) in BALB/c female mice
# condition info: low dose group, 50 μg/pc; blood 24 h after injection; Ave(SD)
Provide the recorded Alkaline phosphatase (ALP) for the entries that follow.

Request: Name the reported Alkaline phosphatase (ALP) value associated with the compound `CCCCCCCCCCCOC(=O)CCCCCN(CCCCCO)CCCCCCCC(=O)OC(CCCCCCCC)CCCCCCCC`
Result: 114.38 U/L

Request: Could you tell me which Alkaline phosphatase (ALP) is on file for CCCCCCCCCCCOC(=O)CCCCCN(CCCCCCCC(=O)OC(CCCCCCCC)CCCCCCCC)C(C)CCO (stereo not drawn) ?
Result: 115.29 U/L

Request: Using the record for `CCCCCCCCCCCOC(=O)CCCCCN(CCCCCCCCCCCCO)CCCCCCCC(=O)OC(CCCCCCCC)CCCCCCCC` , report its Alkaline phosphatase (ALP).
Result: 107.58 U/L

Request: Which Alkaline phosphatase (ALP) value is on record for `CCCCCCCCCCCOC(=O)CCCCCN(CCCCCCCC(=O)OC(CCCCCCCC)CCCCCCCC)CC1(O)CC1` ?
Result: 111.74 U/L

Request: I have this compound here, CCCCCCCCCCCOC(=O)CCCCCN(CCO)CCCCCCCC(=O)OC(CCCCCCCC)CCCCCCCC [SM102, reference compound] , and I need its recorded Alkaline phosphatase (ALP).
Result: 131.7 U/L

Request: Tell me the measured Alkaline phosphatase (ALP) of `CCCCCCCCCCCOC(=O)CCCCCN(CCCCCCO)CCCCCCCC(=O)OC(CCCCCCCC)CCCCCCCC` , please.
Result: 113.3 U/L
